assay: Human HepG2 cell viability assay in 384 well format; assay type: toxicity, cell-based; parameters: dose 125 nL, time 70.5 hour; concentration not given beside the values; conditions: HepG2 cells, read-out: Inhibition
MEASUREMENT TYPE: cytotoxicity at 70.5 h (%)
Your answer should be a plain number; it is taken to be in %.

Would you please look over these solved cases?
MOLECULE: CN(Cc1cccc(CCN)c1)Cc1cccc2ncccc12
cytotoxicity at 70.5 h, %: -16.2

MOLECULE: COc1ccc(CNC(=O)NCc2cc(C)oc2C)cc1
cytotoxicity at 70.5 h, %: -10.8

MOLECULE: COCCN1CCN(C(=O)c2ccccc2C(C)=O)[C@H]2CS(=O)(=O)C[C@H]21
cytotoxicity at 70.5 h, %: -5.79

MOLECULE: O=C(NCC(=O)N1CC2(CCCC2)c2c(F)cccc21)C1CC1
cytotoxicity at 70.5 h, %: 0.771

MOLECULE: CCC(CC)C(O)CNC(=O)Cc1c[nH]c2ncccc12 (stereo unspecified)
cytotoxicity at 70.5 h, %: -4.44

[in] // lookup cytotoxicity at 70.5 h for CSc1ccc(C(CC(=O)O)NC(=O)c2cc(C)on2)cc1 (stereo unspecified)
[out] 0.955

[in] Now consider COc1ccc(N2CCC(N(C)C(=O)Nc3ccncc3)CC2)cc1 and answer again.
[out] 0.31

[in] Similarly, O=C(Cc1ccccn1)N1CCC2(CC1)CN(c1ccccn1)CCO2 ?
[out] -6.92

[in] Continue with N#Cc1ccccc1C(=O)N1C[C@H]2CC[C@@H]1CN(Cc1ccccc1)C2
[out] -13.1

[in] // same read-out, input: CCOCC1CN(C(=O)c2ccoc2)Cc2cnn(C)c21 (stereo unspecified)
[out] 13.6

[in] Now consider c1nc2c(c(N3CCOCC3)n1)CCNCC2 and answer again.
[out] -4.52

---

test: Human HepG2 cell viability assay in 384 well format; type: toxicity, cell-based; parameters: dose 125 nL, time 70.5 hour; concentration not given beside the values; conditions: HepG2 cells, read-out: Inhibition
MEASUREMENT TYPE: cytotoxicity at 70.5 h (%)
Response body: numeric value in %, unit text excluded.

Solved cases (5 shown):
COMPOUND: COCC(C)NC(=O)CN1CCC(CO)CC1 (stereo unspecified)
UNIT DESCRIPTOR: %
cytotoxicity at 70.5 h: -3.9

COMPOUND: O=C(NCC1CC1)C1CSCN1S(=O)(=O)c1ccccc1 (stereo unspecified)
UNIT DESCRIPTOR: %
cytotoxicity at 70.5 h: -15.1

COMPOUND: CCOCCCn1c(NC(=O)c2ccnc(C)n2)nc2ccccc21
UNIT DESCRIPTOR: %
cytotoxicity at 70.5 h: 25.9

COMPOUND: CCOCC(O)CN1CCN(C(=O)C(C)(C)CC)CC1 (stereo unspecified)
UNIT DESCRIPTOR: %
cytotoxicity at 70.5 h: 18.6

COMPOUND: Cc1ncsc1CN1C[C@@H]2CCCO[C@@H]2[C@H](N(C)C(C)C)C1
UNIT DESCRIPTOR: %
cytotoxicity at 70.5 h: -4.74

[in] # cytotoxicity at 70.5 h lookup, item CC(C)Oc1cc(N2C[C@H](C3CC3)[C@@H](N)C2)nc(N)n1
[out] -25.3

---

assay: Human HepG2 cell viability assay in 384 well format; assay type: toxicity, cell-based; design: dose 125 nL, time 70.5 hour; concentration not given beside the values; details: HepG2 cells, read-out: Inhibition
MEASUREMENT TYPE: cytotoxicity at 70.5 h (%)
Numbers only; they are read as %.

COMPOUND: Cc1noc([C@@]23CCO[C@@H]2CCN(C(=O)CCC(C)C)C3)n1
UNIT DESCRIPTOR: %
cytotoxicity at 70.5 h: 1.83

COMPOUND: O=C(Cn1cccnc1=O)NC(Cc1ccsc1)c1ccccn1 (stereo not drawn)
UNIT DESCRIPTOR: %
cytotoxicity at 70.5 h: -11.2

COMPOUND: Cc1ccn2ncc(C(=O)N3CCCC(c4cc(C)[nH]n4)C3)c2n1 (stereo not drawn)
UNIT DESCRIPTOR: %
cytotoxicity at 70.5 h: -7.17

COMPOUND: CS(=O)(=O)N1CCCCC12CCN(c1nncs1)CC2
UNIT DESCRIPTOR: %
cytotoxicity at 70.5 h: -1.19

COMPOUND: CC(C(=O)N1CCCN(c2ncccc2C#N)CC1)n1cncn1 (stereo not drawn)
UNIT DESCRIPTOR: %
cytotoxicity at 70.5 h: -12.1

COMPOUND: CCOc1cc(NC(=O)NCCn2cnnc2CC)ccc1C
UNIT DESCRIPTOR: %
cytotoxicity at 70.5 h: -6.28

COMPOUND: CN1N=C(C(=O)N(Cc2ccco2)C2CCCC2)CCC1=O
UNIT DESCRIPTOR: %
cytotoxicity at 70.5 h: -9.57

COMPOUND: CCCN1CCC(N2CCN(c3cccc(C)n3)CC2)CC1
UNIT DESCRIPTOR: %
cytotoxicity at 70.5 h: 5.86

[in] Would you mind telling me what cytotoxicity at 70.5 h value was observed for CC(c1nc(C2CC2)no1)N1CCN(CCS(C)(=O)=O)CC1 (stereo not drawn) ?
[out] -4.19

[in] Then what about the compound CC(=O)Nc1ccc(-n2ccc3nc(N4CCCC4)ncc3c2=O)cc1 ?
[out] 1.42

[in] Please do the same for CCC(CNC(=O)c1ccc(F)cc1F)N1CCc2ccccc2C1 (stereo not drawn) as well.
[out] -7.79

[in] Moving on to the next compound: COc1ccc(C[C@H]2CN(C(=O)CS(C)(=O)=O)CC[C@H]2OC)cc1
[out] -4.64

[in] Item: CNC(=O)COC1COC2(CCN(Cc3ccncc3F)CC2)C1 (stereo not drawn)
[out] -18

[in] # iterate: O=C(c1ccoc1)N1CCCN(CC2CCOc3ccccc3C2)CC1 (stereo not drawn)
[out] 18.3

[in] Follow-up item: Cc1ccnc(NC(=O)c2ccc(-n3ncc(C#N)c3N)cc2)c1
[out] -6.86

[in] What do you get for Cn1ncc2c(N3CCC(CC(=O)N4CCCC4)CC3)ncnc21 ?
[out] -4.03

[in] Next: CSCCC(=O)N1CCN(CC(O)C(C)(C)C)CC1 (stereo not drawn)
[out] 24.8

[in] Then O=C(c1cccc(N2CCCC2=O)c1)N1CCCC(n2cncn2)C1 (stereo not drawn) ?
[out] -8.04

[in] Request: CC(C)(C)NC(=O)[C@@H]1CNC[C@]12Cc1ccccc1C(=O)N2
[out] -4.03

[in] // repeat for CNCc1ccc([C@@H]2CN(C(C)=O)C[C@H]2C(=O)N(C)C)cc1 and report
[out] -1.57

[in] Same for Cc1nccc(C(=O)N2CCCC2c2c(C)nn(C)c2C)n1 (stereo not drawn)
[out] 16.2

[in] Moving on to the next compound: Cc1noc(C)c1CN1CCO[C@H]2CN(Cc3cncn3C)C[C@H]21
[out] 19

[in] Now consider C[C@H]1CN(c2ccccn2)C[C@@]12CCN(Cc1cccnc1)C2=O .
[out] -0.624

Source of measurements: ChEMBL document CHEMBL3507680
